The measurements presented in this section are drawn from patent US20240382677A1.

EC50 reference
Biological target: full length human PD-1 on HEK293/hPD-1 cells (human)
Test: FACS dose response, HEK293/hPD-1 cells
Measurement Kind: EC50

Binder	Result Value
H4H7798N (antibody, human IgG4 S228P, kappa, V domains shown) VH: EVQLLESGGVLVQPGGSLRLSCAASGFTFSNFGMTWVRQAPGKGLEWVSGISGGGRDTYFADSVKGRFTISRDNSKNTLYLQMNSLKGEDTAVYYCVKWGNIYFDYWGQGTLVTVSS VL: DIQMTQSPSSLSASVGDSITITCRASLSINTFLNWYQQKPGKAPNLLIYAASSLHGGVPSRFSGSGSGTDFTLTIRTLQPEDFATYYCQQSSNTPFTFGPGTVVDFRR	0.509 nM
H2aM7796N (antibody, mouse IgG2a, V domains shown) VH: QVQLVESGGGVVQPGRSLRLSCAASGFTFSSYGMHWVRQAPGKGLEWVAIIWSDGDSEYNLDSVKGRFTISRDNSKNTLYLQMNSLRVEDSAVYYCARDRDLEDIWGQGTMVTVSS VL: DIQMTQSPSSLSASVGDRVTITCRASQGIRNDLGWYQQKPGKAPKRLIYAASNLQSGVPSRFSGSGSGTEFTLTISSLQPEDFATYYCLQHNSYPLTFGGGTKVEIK	4.81 nM
H2aM7798N (antibody, mouse IgG2a, V domains shown) VH: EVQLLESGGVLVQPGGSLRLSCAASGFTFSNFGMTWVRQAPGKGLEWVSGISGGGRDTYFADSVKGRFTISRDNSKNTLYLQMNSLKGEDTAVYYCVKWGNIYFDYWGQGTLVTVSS VL: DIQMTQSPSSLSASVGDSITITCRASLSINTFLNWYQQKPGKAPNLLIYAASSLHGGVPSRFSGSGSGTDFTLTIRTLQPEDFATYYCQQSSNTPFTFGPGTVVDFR	0.0698 nM
